Provenance of the data: ChEMBL document CHEMBL4831543

Target: Gamma-secretase (Homo sapiens) (UniProt Q96BI3+Q9NZ42+Q8WW43+P49768+Q92542+P49810)
Test: Inhibition of TSA-Bpa-Bt labelling of gamma secretase (unknown origin) expressed in HEK293 cells at 10 uM preincubated for 1.5 hrs followed by irradiation for 30 mins by Western blot analysis
Assay type: cell-based
Conditions: time 2.0 hrs
Active and inactive are the calls of the source. The calls are words filed in the database; no cut-off is given here.
Labels: 1 for active, -1 for inactive

>  <STRUCTURE_STRING>
CC[C@H](C)[C@@H](NC(=O)[C@H](NC(=O)[C@H](NC(=O)C(C)(C)NC(=O)CNC(=O)[C@H](NC(=O)OC(C)(C)C)C(C)C)C(C)C)C(C)C)C(=O)NC(C)(C)C(=O)N[C@@H](C(=O)N[C@@H](C(=O)NC(C)(C)C(=O)NCCCCCCCCCCC(=O)N[C@H](C(=O)N[C@@H](Cc1ccccc1)[C@H](O)CN(Cc1ccccc1)C(=O)N[C@@H](CC(C)C)C(=O)N[C@H](C(N)=O)C(C)C)C(C)C)C(C)C)[C@@H](C)O

>  <LABEL_CLASS>
1

$$$$
>  <STRUCTURE_STRING>
CC[C@H](C)[C@H](NC(=O)[C@@H](NC(=O)[C@@H](NC(=O)C(C)(C)NC(=O)CNC(=O)[C@@H](NC(=O)OC(C)(C)C)C(C)C)C(C)C)C(C)C)C(=O)NC(C)(C)C(=O)N[C@@H](Cc1ccccc1)C(=O)N[C@H](C(=O)NC(C)(C)C(=O)OC)C(C)C

>  <LABEL_CLASS>
-1

$$$$
>  <STRUCTURE_STRING>
CC[C@H](C)[C@H](NC(=O)[C@@H](NC(=O)[C@@H](NC(=O)C(C)(C)NC(=O)CNC(=O)[C@@H](NC(=O)OC(C)(C)C)C(C)C)C(C)C)C(C)C)C(=O)NC(C)(C)C(=O)N[C@@H](Cc1ccccc1)C(=O)N[C@H](C(=O)NC(C)(C)C(=O)NCC(=O)NCC(=O)NCC(=O)N[C@H](C(=O)N[C@@H](Cc1ccccc1)[C@H](O)CN(Cc1ccccc1)C(=O)N[C@@H](CC(C)C)C(=O)N[C@H](C(N)=O)C(C)C)C(C)C)C(C)C

>  <LABEL_CLASS>
1

$$$$
>  <STRUCTURE_STRING>
COC(=O)[C@@H](NC(=O)[C@H](CC(C)C)NC(=O)N(Cc1ccccc1)C[C@@H](O)[C@H](Cc1ccccc1)NC(=O)[C@@H](NC(=O)OC(C)(C)C)C(C)C)C(C)C

>  <LABEL_CLASS>
1

$$$$

----------
Target: Gamma-secretase (Homo sapiens) (UniProt Q96BI3+Q9NZ42+Q8WW43+P49768+Q92542+P49810)
Experiment: Inhibition of HPI-Bpa-Bt labelling of gamma secretase (unknown origin) expressed in HEK293 cells at 10 uM preincubated for 1.5 hrs followed by irradiation for 30 mins by Western blot analysis
Assay type: cell-based
Settings: time 2.0 hrs
Calls of active or inactive are those of the source. The rule behind the calls is not given here.
Labels: active, inactive

>  <STRUCTURE_STRING>
CC[C@H](C)[C@H](NC(=O)[C@@H](NC(=O)[C@@H](NC(=O)C(C)(C)NC(=O)CNC(=O)[C@@H](NC(=O)OC(C)(C)C)C(C)C)C(C)C)C(C)C)C(=O)NC(C)(C)C(=O)N[C@@H](Cc1ccccc1)C(=O)N[C@H](C(=O)NC(C)(C)C(=O)OC)C(C)C

>  <LABEL_CLASS>
active

$$$$
>  <STRUCTURE_STRING>
CC[C@H](C)[C@@H](NC(=O)[C@H](NC(=O)[C@H](NC(=O)C(C)(C)NC(=O)CNC(=O)[C@H](NC(=O)OC(C)(C)C)C(C)C)C(C)C)C(C)C)C(=O)NC(C)(C)C(=O)N[C@@H](C(=O)N[C@@H](C(=O)NC(C)(C)C(=O)NCCCCCCCCCCC(=O)N[C@H](C(=O)N[C@@H](Cc1ccccc1)[C@H](O)CN(Cc1ccccc1)C(=O)N[C@@H](CC(C)C)C(=O)N[C@H](C(N)=O)C(C)C)C(C)C)C(C)C)[C@@H](C)O

>  <LABEL_CLASS>
active

$$$$
>  <STRUCTURE_STRING>
CC[C@H](C)[C@H](NC(=O)[C@@H](NC(=O)[C@@H](NC(=O)C(C)(C)NC(=O)CNC(=O)[C@@H](NC(=O)OC(C)(C)C)C(C)C)C(C)C)C(C)C)C(=O)NC(C)(C)C(=O)N[C@@H](Cc1ccccc1)C(=O)N[C@H](C(=O)NC(C)(C)C(=O)NCC(=O)NCC(=O)NCC(=O)N[C@H](C(=O)N[C@@H](Cc1ccccc1)[C@H](O)CN(Cc1ccccc1)C(=O)N[C@@H](CC(C)C)C(=O)N[C@H](C(N)=O)C(C)C)C(C)C)C(C)C

>  <LABEL_CLASS>
active

$$$$
>  <STRUCTURE_STRING>
COC(=O)[C@@H](NC(=O)[C@H](CC(C)C)NC(=O)N(Cc1ccccc1)C[C@@H](O)[C@H](Cc1ccccc1)NC(=O)[C@@H](NC(=O)OC(C)(C)C)C(C)C)C(C)C

>  <LABEL_CLASS>
inactive

$$$$
